Catalogue of inhibition at 10 µM readings, one per entry.
study system: bradykinin 1 receptor (B1R) of the rat (Rattus norvegicus, UniProt P97583)
Construct: expressed in transfected cells; host or cells: CHO K1 cells
Sequence (P97583 1-337): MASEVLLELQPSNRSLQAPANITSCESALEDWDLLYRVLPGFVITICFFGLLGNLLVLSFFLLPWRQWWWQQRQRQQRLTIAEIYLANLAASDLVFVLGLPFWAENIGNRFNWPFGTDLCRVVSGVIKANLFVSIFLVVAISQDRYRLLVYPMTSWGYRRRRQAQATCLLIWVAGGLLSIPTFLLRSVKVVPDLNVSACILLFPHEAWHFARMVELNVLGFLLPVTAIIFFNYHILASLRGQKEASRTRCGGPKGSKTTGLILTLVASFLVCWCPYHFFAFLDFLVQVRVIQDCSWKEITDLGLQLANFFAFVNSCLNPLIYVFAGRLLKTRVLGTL
method summary: Functional investigation on the rat bradykinin 1 receptor (B1R), Ca2+ FLIPR assay in CHO K1 rB1R cells
Format: cell-based
condition label: CHO-K1, B1R antagonism rat; test substance 10 μM; Ca2+ FLIPR, CHO K1 rB1R cells; read-out: B1R Ant. r [10 μM] % Inhibition
Answer format: numeric, % implied, no suffix.

Worked examples, 2 molecules total:
Known value: bradykinin 1 receptor (B1R) of the rat (Rattus norvegicus, UniProt P97583) inhibition at 10 µM of the molecule CN(C)C(c1ccccc1)C1CCC(NC(=O)CCNC(=O)c2nc(-c3cccs3)no2)CC1 (stereo not shown) equals 30

bradykinin 1 receptor (B1R) of the rat (Rattus norvegicus, UniProt P97583) data for COc1ccc(S(=O)(=O)N(C)CCOCC(=O)NC2CCC(C(c3cccs3)N(C)C)CC2)cc1 (stereo not shown) ; its inhibition at 10 µM: 29

More entries:
The measured inhibition at 10 µM that CN(C)C(c1cccs1)C1CCC(CNC(=O)COC2CCCCC2N(C)S(=O)(=O)c2ccc(Cl)c(Cl)c2)CC1 (stereo not shown) showed for bradykinin 1 receptor (B1R) of the rat (Rattus norvegicus, UniProt P97583) is 11

# CN(C)C(c1ccccc1)C1CCC(CNC(=O)COCCN(C)S(=O)(=O)c2ccc(F)cc2)CC1 (stereo not shown) with bradykinin 1 receptor (B1R) of the rat (Rattus norvegicus, UniProt P97583): inhibition at 10 µM is 5

With bradykinin 1 receptor (B1R) of the rat (Rattus norvegicus, UniProt P97583) as the test system, CN(C)C(CCc1ccccc1)C1CCC(NC(=O)CNC(=O)c2nc(-c3c(Cl)cccc3Cl)no2)CC1 (stereo not shown) showed inhibition at 10 µM of 6

Reading of inhibition at 10 µM for COc1cc(C)c(S(=O)(=O)N(C)CCOCC(=O)NC2CCC(C(c3ccccc3)N3CCOCC3)CC2)c(C)c1 (stereo not shown) with bradykinin 1 receptor (B1R) of the rat (Rattus norvegicus, UniProt P97583): 98

The molecule CN(C)C(c1cccc(F)c1)C1CCC(CNC(=O)COCC2CCCN2S(=O)(=O)c2ccc(Cl)c(Cl)c2)CC1 (stereo not shown) , when measured on bradykinin 1 receptor (B1R) of the rat (Rattus norvegicus, UniProt P97583), yielded inhibition at 10 µM of -6
